B1: glmS ribozyme (parent)
chain: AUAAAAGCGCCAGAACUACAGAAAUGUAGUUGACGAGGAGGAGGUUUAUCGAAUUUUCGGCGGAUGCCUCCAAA

variants of: B1; assay: self-cleavage kobs at 10000 uM GlcN6P; higher = faster cleavage; RNA array; details: with glucosamine-6-phosphate
This sample holds only a part of the variants without activity.
Readout type: self-cleavage kobs at 10000 uM GlcN6P (s⁻¹)
Numbers only, in s⁻¹.

INSERT INTO assay_data (construct_sequence, readout_type, measured_value) VALUES
  ('AUAAAAGCGCCCUAACUACAGAAAUGUAGUUGACGAGGAGGAGGUUAAUCGAAUUAUCGGCGGAUGCCUCCAAA', 'self-cleavage kobs at 10000 uM GlcN6P', '4.59e-05'),
  ('AUAAAAGCGCCAGAAAUACAGAAAUGUAGUUCACGAGGAGGAGGUUUAUCGAAUUUUCGGCGGAUGCCUCCAAA', 'self-cleavage kobs at 10000 uM GlcN6P', '8.41e-05'),
  ('AUAAAAGCGCCUGAACUACAGAAAUGUAGUUGACGAGGAGGAGGUUUAUCGAACUUUCGGCGGAUGCCUCCAAA', 'self-cleavage kobs at 10000 uM GlcN6P', 0.0931),
  ('AUAAAAGCGCCAGAGCUACAGAAAUGUAGUUGACGAGGAGGAGGUUUAUCGAAUUUUCGGCGGAUGCAUCCAAA', 'self-cleavage kobs at 10000 uM GlcN6P', '6.03e-05');

Query block: Which self-cleavage kobs at 10000 uM GlcN6P reading was recorded for the variant AUAAAAGCGCCUGAAGUACAGAAAUGUAGUUGACGAGGAUGAGGUUUAUCGAAUUUUCGGCGGAUGCCUCCAAA ?
Result block: 0.000769
